- Test system: Vero E6 infected with SARS-CoV-2
- Assay Method Text: inhibition of SARS-CoV-2 cytopathic effect; higher = more antiviral protection, active = above 15
- Test Context: 8.33 nM; 48 h
inhibition of SARS-CoV-2 cytopathic effect reference
Test Readout: inhibition of SARS-CoV-2 cytopathic effect (%)

INSERT INTO results (molecule, experimental_target, unit_symbol, result_value) VALUES
  ('CN(C)C/C=C/C(=O)Nc1cc2c(Nc3ccc(F)c(Cl)c3)ncnc2cc1O[C@H]1CCOC1', 'Vero E6 infected with SARS-CoV-2', '%', -3.01),
  ('Nc1nc(=O)c2c([nH]1)NCC(CNc1ccc(C(=O)N[C@@H](CCC(=O)O)C(=O)O)cc1)N2C=O (stereo partly drawn)', 'Vero E6 infected with SARS-CoV-2', '%', -3.52),
  ('CC(C)(C)NC[C@H](O)c1ccc(O)cc1Cl', 'Vero E6 infected with SARS-CoV-2', '%', 1.91),
  ('CCC(=O)OCC(=O)[C@@]1(OC(=O)CC)[C@@H](C)C[C@H]2[C@@H]3CCC4=CC(=O)C=C[C@]4(C)[C@@]3(Cl)[C@@H](O)C[C@@]21C [beclomethasone-dipropionate]', 'Vero E6 infected with SARS-CoV-2', '%', -9.23),
  ('Nc1ccc(C(=O)Nc2cccc(-c3nc(N4CCOCC4)c4oc5ncccc5c4n3)c2)cn1', 'Vero E6 infected with SARS-CoV-2', '%', -2.3),
  ('CCCN(CCC)CCc1cccc2c1CC(=O)N2', 'Vero E6 infected with SARS-CoV-2', '%', -0.55),
  ('COC1(C2=NCCN2)COc2ccccc2O1 (stereo not drawn)', 'Vero E6 infected with SARS-CoV-2', '%', 1.98),
  ('O=c1cc(-c2ccc(O)cc2)oc2cc(O)cc(O)c12', 'Vero E6 infected with SARS-CoV-2', '%', -3.34);

###

- Tested on: Vero E6 infected with SARS-CoV-2
- Assay Method Text: morphology score (similarity to uninfected cells); higher = more like uninfected cells
- Test Context: 24 h
Output 1 for morphology score not less than 0.07; output 0 otherwise.

INSERT INTO results (compound, classification) VALUES
  ('CCCn1c(=O)c(C)cn2nc(N)nc12 (10 µM)', 1),
  ('CCCCCNC(=N)N/N=C/c1c[nH]c2ccc(OC)cc12 [tegaserod] (10 µM)', 1),
  ('Cc1nc2c(-c3cnc(N)nc3)nc(N3CCOCC3)nc2n1C(C)C (10 µM)', 0),
  ('COc1cc2c(cc1O)C(CCc1ccc(Cl)cc1)N(C)CC2 (centres undefined) (10 µM)', 1),
  ('Cc1cc(N2CCOCC2)cc2[nH]c(-c3c(NC[C@@H](O)c4cccc(Cl)c4)cc[nH]c3=O)nc12 (0.833333 µM)', 0),
  ('CC(C)(Oc1ccc(Cl)cc1)C(=O)N1CSCC1C(=O)O (centres undefined) [timofibrate] (10 µM)', 0),
  ('Cc1cc(C)cc(NC(=O)Cc2ccc(OC(C)(C)C(=O)O)cc2)c1 [efaproxiral] (10 µM)', 0),
  ('Cc1cc(C)cc(C(=O)O[C@H]2C[C@H]3CC[C@@H](C2)N3C)c1 [tropanyl-3,5-dimethylbenzoate] (10 µM)', 1),
  ('CC(=O)N1CCN(c2ccc(OC[C@@H]3CO[C@@](Cn4ccnc4)(c4ccc(Cl)cc4Cl)O3)cc2)CC1 (racemic) [ketoconazole] (10 µM)', 1);

###

- Tested on: Vero E6 infected with SARS-CoV-2
- Assay Method Text: morphology score (similarity to uninfected cells); higher = more like uninfected cells
- Test Context: 24 h
morphology score reference
Test Readout: morphology score

INSERT INTO results (molecule, test_readout, result_value) VALUES
  ('Nc1[nH]cnc2ncnc1-2 [adenine] (10 µM)', 'morphology score', 0.0482),
  ('Cc1cccc(NC(=O)CN2CCC(c3ccccn3)CC2)c1 (10 µM)', 'morphology score', -0.0959),
  ('C(#Cc1nc2ncccc2nc1OCCN1CCCC1)c1ccccc1 (0.833333 µM)', 'morphology score', 0.0988),
  ('CCN(CC)CCOCCOC(=O)C(CC)(CC)c1ccccc1 [oxelaidin] (10 µM)', 'morphology score', 0.423),
  ('CCCN(CCC)C1Cc2cc(OC)c(OC)cc2C1 (10 µM)', 'morphology score', 0.231),
  ('O=C(O)c1cc(O)c2c(c1)[C@H]([C@H]1c3cc(C(=O)O)cc(O)c3C(=O)c3c(O[C@@H]4O[C@H](CO)[C@@H](O)[C@H](O)[C@H]4O)cccc31)c1cccc(O[C@@H]3O[C@H](CO)[C@@H](O)[C@H](O)[C@H]3O)c1C2=O [sennoside-A] (10 µM)', 'morphology score', -0.287),
  ('O=C1NC(=O)C(c2ccccc2)(c2ccccc2)N1 [phenytoin] (10 µM)', 'morphology score', 0.168),
  ('COc1ccccc1N1CCN(CC(O)COc2cc(OC)c(OC)c(OC)c2)CC1 (stereo not drawn) [enciprazine] (10 µM)', 'morphology score', 0.0687);

###

- Test system: Vero E6 infected with SARS-CoV-2
- Assay Method Text: inhibition of SARS-CoV-2 cytopathic effect; higher = more antiviral protection, active = above 15
- Test Context: 1 nM; 48 h
inhibition of SARS-CoV-2 cytopathic effect reference
Test Readout: inhibition of SARS-CoV-2 cytopathic effect

INSERT INTO results (compound, result_value) VALUES
  ('CCCN1CCCC(c2cccc(O)c2)C1 (stereo in doubt) [preclamol]', '-0.2% (inactive)'),
  ('CC(=O)Nc1ncc([N+](=O)[O-])s1 [nithiamide]', '-2.44% (inactive)'),
  ('C[C@H](NC(=O)/C(C#N)=C/c1cccc(Br)n1)c1ccccc1', '-2.07% (inactive)'),
  ('O=C(O)c1ccc(S(=O)(=O)N(Cc2ccc(OC(F)(F)F)cc2)c2ncc(C(F)(F)F)cc2Cl)cc1', '1.52% (inactive)'),
  ('C[N+]1(C)[C@@H]2C[C@@H](OC(=O)[C@H](CO)c3ccccc3)C[C@H]1[C@@H]1O[C@@H]12 [methscopolamine]', '-1.29% (inactive)'),
  ('CC[C@H](C)[C@H](NC(=O)[C@H](Cc1ccc(O)cc1)NC(=O)[C@@H](NC(=O)[C@H](CCCNC(=N)N)NC(=O)[C@@H](N)CC(=O)O)C(C)C)C(=O)N[C@@H](Cc1c[nH]cn1)C(=O)N1CCC[C@H]1C(=O)O', '-1.39% (inactive)'),
  ('CCOC(=O)[C@H](CCc1ccccc1)N[C@H]1CS[C@H](c2cccs2)CN(CC(=O)O)C1=O [temocapril]', '-2.77% (inactive)'),
  ('CCOc1ccc2ccccc2c1C(=O)N[C@@H]1C(=O)N2[C@@H]1SC(C)(C)[C@@H]2C(=O)O [nafcillin]', '-2.44% (inactive)'),
  ('O[C@@H](COc1cccc2ncccc12)CN1CCN([C@@H]2c3ccccc3[C@@H]3[C@H](c4ccccc42)C3(F)F)CC1 [zosuquidar]', '-0.36% (inactive)'),
  ('CC1(C)C(=O)N(c2ccc(C#N)c(C(F)(F)F)c2)C(=O)N1CCCCO', '2.69% (inactive)'),
  ('CN(C)/N=N/c1[nH]cnc1C(N)=O [dacarbazine]', '2.03% (inactive)'),
  ('CN(C)CCCOc1nn(Cc2ccccc2)c2ccccc12 [benzydamine]', '1.21% (inactive)'),
  ('CC(C)OC(=O)[C@H](C)N[P@@](=O)(OC[C@H]1O[C@@H](n2ccc(=O)[nH]c2=O)[C@](C)(F)[C@@H]1O)Oc1ccccc1', '2.14% (inactive)'),
  ('COc1cc2nc(N3CCN(C(=O)COc4c(OC)cccc4C(C)C)CC3)nc(N)c2cc1OC', '0.49% (inactive)'),
  ('OC[C@H]1O[C@@H](c2ccc(Cl)c(Cc3ccc(O[C@H]4CCOC4)cc3)c2)[C@H](O)[C@@H](O)[C@@H]1O [empagliflozin]', '1.11% (inactive)'),
  ('C(#Cc1nc2ncccc2nc1OCCN1CCCC1)c1ccccc1', '-1.59% (inactive)'),
  ('CCN(CC)CCOC(=O)C1(c2ccccc2)CCCC1 [caramiphen]', '-4.57% (inactive)'),
  ('CC(COc1ccccc1Cc1ccccc1)N1CCCCC1 (centres undefined) [benproperine]', '-1.82% (inactive)'),
  ('CC(=O)N(CC(C)C(=O)O)c1c(I)cc(I)c(N)c1I (centres undefined) [iocetamic-acid]', '-1.3% (inactive)'),
  ('CC1(C)S[C@@H]2[C@H](NC(=O)COc3ccccc3)C(=O)N2[C@H]1C(=O)O [penicillin-v-potassium]', '-0.76% (inactive)'),
  ('C/N=C(/NC#N)NCCSCc1csc(NC(=N)N)n1 [tiotidine]', '-3.61% (inactive)'),
  ('CCC[C@@H]1CC2=CC(=O)CC[C@]2(C)[C@H]2CC[C@@]3(C)[C@@H](CC[C@@]3(O)CCC(=O)O)[C@H]12', '1.5% (inactive)'),
  ('COc1ccc2cccc(N3CCN(CCNC(=O)c4ccc(F)cc4)CC3)c2c1', '-1.86% (inactive)'),
  ('CCC1(c2ccccc2)C(=O)N(COC)C(=O)N(COC)C1=O [eterobarb]', '-0.71% (inactive)'),
  ('Cc1c(C(=O)NN2CCCCC2)nn(-c2ccc(Cl)cc2Cl)c1-c1ccc(Cl)cc1 [rimonabant]', '-1.86% (inactive)'),
  ('CCOC(=O)Nc1ccc2c(c1)N(C(=O)CCN1CCOCC1)c1ccccc1S2 [moracizine]', '0.84% (inactive)'),
  ('CC[C@H](CC[C@@H](C)[C@H]1CC[C@H]2[C@@H]3CC=C4C[C@@H](O)CC[C@]4(C)[C@H]3CC[C@]12C)C(C)C [beta-Sitosterol]', '0.66% (inactive)'),
  ('Cc1nc(NC(=O)N2CCC[C@H]2C(N)=O)sc1-c1ccnc(C(C)(C)C(F)(F)F)c1 [alpelisib]', '2.4% (inactive)'),
  ('CCn1c(=O)c2c(nc(/C=C/c3ccc(OC)c(OC)c3)n2C)n(CC)c1=O [istradefylline]', '1.05% (inactive)'),
  ('NCCc1cc(O)c(O)cc1O [oxidopamine]', '-2.92% (inactive)'),
  ('NC(=O)c1ncn([C@@H]2O[C@H](CO)[C@@H](O)[C@H]2O)c1O [mizoribine]', '-1.24% (inactive)'),
  ('CN1CCN(Cc2ccc(-c3cnc4[nH]cc(-c5ccc6[nH]ccc6c5)c4c3)cc2)CC1', '1.32% (inactive)'),
  ('COc1cccc(-n2nc(C(=O)O)cc2-c2ccc(C3CCCCC3)c(Cl)c2)c1', '0.77% (inactive)'),
  ('COc1cccc(C=NCCN=Cc2cccc(OC)c2[O-])c1[O-].[Cl-].[Mn+3]', '2.33% (inactive)');

Values compiled from the supplement of paper PMC13380429.
